experimental target: Protein phosphatase EYA2 (Homo sapiens) (UniProt O00167)
Sequence (O00167 whole entry, looked up): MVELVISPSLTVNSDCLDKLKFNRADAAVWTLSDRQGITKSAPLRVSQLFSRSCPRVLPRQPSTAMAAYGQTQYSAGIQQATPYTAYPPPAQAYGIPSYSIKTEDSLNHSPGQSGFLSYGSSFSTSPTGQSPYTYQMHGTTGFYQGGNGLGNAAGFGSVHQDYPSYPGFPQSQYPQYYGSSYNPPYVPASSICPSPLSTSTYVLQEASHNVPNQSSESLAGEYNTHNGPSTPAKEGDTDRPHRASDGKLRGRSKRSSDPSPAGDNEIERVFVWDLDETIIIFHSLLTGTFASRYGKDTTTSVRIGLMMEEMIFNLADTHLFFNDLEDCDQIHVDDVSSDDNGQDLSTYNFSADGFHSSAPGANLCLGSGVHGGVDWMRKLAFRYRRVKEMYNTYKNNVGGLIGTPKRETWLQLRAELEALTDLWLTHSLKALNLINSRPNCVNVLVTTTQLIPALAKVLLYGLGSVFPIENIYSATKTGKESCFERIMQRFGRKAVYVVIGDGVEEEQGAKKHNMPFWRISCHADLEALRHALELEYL
experiment description: qHTS for Inhibitors of the Phosphatase Activity of Eya2: Confirmatory Assay for Cherry-picked Compounds; note: nearly all actives have a fitted effect of over 65% in size
particulars: purified EYA2 phosphatase activity, qHTS confirmation; series mostly up to 46.1 µM
The campaign covered roughly 1,300 compounds. About 460 (35%) were called active. About 39% were inconclusive and are not listed. Calls come from the whole dose curve; as a rule, active = well fitted inhibition curve with a large enough effect; inconclusive = small, poorly fitted or top-dose-only effect; inactive = flat fitted curve, though single readings scatter. Some of the results follow.
Pick one and only one: active, inactive

Problem: Returns: the outcome recorded for Oc1ccccc1C=NC1CCCCC1N=Cc1ccccc1O (stereo unspecified) in this assay.
Solution: active

More entries:
Problem: Returns: the outcome recorded for `Cc1ccc(NC(=O)CN2C(=O)S/C(=C\c3cc(Cl)c(OCC(=O)O)c(Cl)c3)C2=O)cc1` in this assay.
Solution: active

Problem: Returns: the outcome recorded for CC(C(=O)O)N1C(=O)/C(=C/C=C/c2ccco2)SC1=S (stereo unspecified) in this assay.
Solution: active

Problem: Returns: the outcome recorded for `O=C(CNC(=O)c1[nH]cnc1C(=O)N[C@@H](Cc1ccccc1)C(=O)OCc1ccccc1)OCc1ccccc1` in this assay.
Solution: inactive

Problem: Returns: the outcome recorded for `CCN1C(=O)/C(=C2/C=Cc3ccccc3N2CC)SC1=S` in this assay.
Solution: active

Problem: Returns: the outcome recorded for `Cc1c(CCC(=O)NCCCCCC(=O)O)c(=O)oc2cc3occ(-c4ccccc4)c3cc12` in this assay.
Solution: active
